The origin of these recorded values is patent US7115629B2.

system_name: human M2 receptors (Homo sapiens, UniProt P08172)
Construct: purchased Receptor Biology; host or cells: CHO-K1 cells transfected with the human receptor (membranes)
Sequence (P08172 whole entry): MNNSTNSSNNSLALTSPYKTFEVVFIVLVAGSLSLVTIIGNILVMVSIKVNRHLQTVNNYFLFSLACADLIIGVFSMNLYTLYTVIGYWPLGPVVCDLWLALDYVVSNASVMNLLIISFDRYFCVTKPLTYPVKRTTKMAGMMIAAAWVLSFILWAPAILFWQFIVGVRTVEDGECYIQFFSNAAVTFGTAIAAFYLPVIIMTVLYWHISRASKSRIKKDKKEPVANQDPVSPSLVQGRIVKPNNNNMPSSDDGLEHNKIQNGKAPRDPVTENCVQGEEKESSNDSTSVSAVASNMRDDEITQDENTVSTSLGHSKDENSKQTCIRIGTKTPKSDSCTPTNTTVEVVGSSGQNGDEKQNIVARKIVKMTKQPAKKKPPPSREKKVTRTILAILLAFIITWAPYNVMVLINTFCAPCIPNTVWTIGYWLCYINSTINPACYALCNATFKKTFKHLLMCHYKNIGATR
assay: Binding test to cloned human M2 muscarinic receptor ([3H]-NMS displacement, CHO-K1 membranes), reported as M2/M3 ratio
reported_conditions: value greater than 1 indicates selectivity for the M3 receptor
// bucketize M2/M3 (ratio between M2 and M3 receptor affinities): bottom end = under 30, midrange = from 30 up to 60, top end = 60 and over

Field: class (M2/M3 (ratio between M2 and M3 receptor affinities)) — entry: O=C(OC1CN2CCC1CC2)N(Cc1ccccc1)c1cccc(Br)c1 (stereo not shown)
bottom end

Field: class (M2/M3 (ratio between M2 and M3 receptor affinities)) — entry: O=C(OC1CN2CCC1CC2)N(Cc1ccc(F)c(F)c1F)c1cccc(Cl)c1 (stereo not shown)
top end

Field: class (M2/M3 (ratio between M2 and M3 receptor affinities)) — entry: O=C(OC1CN2CCC1CC2)N(Cc1cccc(OC(F)(F)F)c1)c1ccccc1 (stereo not shown)
bottom end

Field: class (M2/M3 (ratio between M2 and M3 receptor affinities)) — entry: O=C(OC1CN2CCC1CC2)N(CC1CC2C=CC1C2)c1ccccc1 (stereo not shown)
top end

Field: class (M2/M3 (ratio between M2 and M3 receptor affinities)) — entry: O=C(OC1CN2CCC1CC2)N(CC1CC2CCC1C2)c1cccc(F)c1 (stereo not shown)
top end

Field: class (M2/M3 (ratio between M2 and M3 receptor affinities)) — entry: O=C(OC1CN2CCC1CC2)N(CC1=CCCCC1)c1ccccc1F (stereo not shown)
midrange

Field: class (M2/M3 (ratio between M2 and M3 receptor affinities)) — entry: O=C(OC1CN2CCC1CC2)N(CC1CCC1)c1ccccc1 (stereo not shown)
top end

Field: class (M2/M3 (ratio between M2 and M3 receptor affinities)) — entry: COc1cc(CN(C(=O)OC2CN3CCC2CC3)c2cccc(Cl)c2)ccc1OCc1ccccc1 (stereo not shown)
bottom end

Field: class (M2/M3 (ratio between M2 and M3 receptor affinities)) — entry: Cc1cccc(N(Cc2ccc(F)cc2F)C(=O)OC2CN3CCC2CC3)c1 (stereo not shown)
bottom end

Field: class (M2/M3 (ratio between M2 and M3 receptor affinities)) — entry: Cc1cccc(N(Cc2cccc(O)c2)C(=O)OC2CN3CCC2CC3)c1 (stereo not shown)
midrange

Field: class (M2/M3 (ratio between M2 and M3 receptor affinities)) — entry: CCc1ccc(CN(C(=O)OC2CN3CCC2CC3)c2ccccc2)cc1 (stereo not shown)
top end

Field: class (M2/M3 (ratio between M2 and M3 receptor affinities)) — entry: Cc1cccc(N(Cc2cc(F)cc(F)c2F)C(=O)OC2CN3CCC2CC3)c1 (stereo not shown)
top end

Field: class (M2/M3 (ratio between M2 and M3 receptor affinities)) — entry: O=C(OC1CN2CCC1CC2)N(Cc1ccccc1)c1ccccc1F (stereo not shown)
midrange

Field: class (M2/M3 (ratio between M2 and M3 receptor affinities)) — entry: Cc1cccc(N(Cc2ccc(C)c(F)c2)C(=O)OC2CN3CCC2CC3)c1 (stereo not shown)
midrange

Field: class (M2/M3 (ratio between M2 and M3 receptor affinities)) — entry: Cc1cccc(N(Cc2ccccc2)C(=O)OC2CN3CCC2CC3)c1 (stereo not shown)
midrange

Field: class (M2/M3 (ratio between M2 and M3 receptor affinities)) — entry: O=C(O[C@H]1CN2CCC1CC2)N(Cc1ccccc1)c1c(F)cccc1F
bottom end
